assay.endpoint: melting point (°C)

I: CCCNc1ccc(C=O)cc1[N+](=O)[O-]
II: O=c1cc(-n2ccnc2)c2cc(C(c3ccc(Cl)cc3)n3ccnc3)ccc2[nH]1 (centres undefined)
Just tell me: smaller melting point value, I or II ? Return value: the label identifying the chosen record.
I

====

Reported melting point values are given for each entry in this list.

Solved entries:
compound	assay.endpoint	result
CCCCNS(=O)(=O)C[C@@H](O)C(O)[C@@H](CC1CCCCC1)NC(=O)[C@H](CC(C)C)NC(=O)CCc1ccccc1 (relative stereo)	melting point	63 to 73 °C
N#Cc1cccnc1CC1COc2cc3c(cc2O1)OCC31C(=O)Cc2ccccc21 (stereo not given)	melting point	230 to 233 °C
CCN1C(=O)C=C(c2ccc(Cl)c(Cl)c2)C1=O	melting point	138 to 141 °C
O=C(O)c1cc2cc3[nH]c(=O)oc3cc2[nH]1	melting point	288 to 290 °C
Fc1cc(F)cc(C=Cc2cc3cc4ccccc4cc3s2)c1	melting point	265 to 267 °C

Data request, read-out melting point, for CCC1(CCCCN2CCN(c3ccc(Cl)cc3)CC2)C(=O)Nc2ccc(F)cc21 (stereo not given)
148 to 150 °C

Now try O[C@H]1c2cc(OC(c3ccccc3)c3ccccc3)ccc2OC[C@H]1Oc1cccnc1 (relative stereo) .
169 to 170 °C

Now try CCCCc1nc2cc[nH]c(=O)c2n1Cc1ccc(-c2ccccc2-c2nnn[nH]2)cc1 .
167 °C

Now try NC(=S)NN=C(CCC(=O)NC1CCCCC1)c1ccccc1 .
89 to 92 °C

Now try N#CCCNC(=O)c1cccc(-c2ccc3c(c2)C(c2ccc(Cl)cc2Cl)CO3)c1 (stereo not given) .
130 to 131 °C

Now try C=CCc1cc2c(cc1O)C(C)(C)C(O)O2 (stereo not given) .
66 to 67 °C

Now try CCCCOc1cc(CO)cc(N)c1Cc1ccccc1 .
105 to 107 °C

Now try COC(=O)c1c(CN2CCC(S(C)(=O)=O)CC2)c(=O)c2ccc(F)cc2n1-c1ccccc1 .
190 to 191 °C
